// provenance: ChEMBL document CHEMBL5661979

assay: Volume of distribution at steady state in Sprague-Dawley rat at 1 mg/kg, iv measured up to 8 hrs by LC-MS/MS analysis; assay type: ADME, organism-based; conditions: in vivo, read-out: Vdss
measured_endpoint: Vd (L/kg)

• CCOc1cc(N2CCC(O)CC2)ccc1Nc1ncc2c(n1)N(C)c1ccccc1C(=O)N2C = 3.4

* * *

molecular target: Cyclin-dependent kinase 7 (Homo sapiens, UniProt P50613); experiment: Inhibition of CDK7 in human HeLa cells lysate pre incubated for 15 mins followed by ATP acyl phosphate probe addition and measured after 10 mins by LC-MS/MS analysis
Sequence (P50613 whole entry): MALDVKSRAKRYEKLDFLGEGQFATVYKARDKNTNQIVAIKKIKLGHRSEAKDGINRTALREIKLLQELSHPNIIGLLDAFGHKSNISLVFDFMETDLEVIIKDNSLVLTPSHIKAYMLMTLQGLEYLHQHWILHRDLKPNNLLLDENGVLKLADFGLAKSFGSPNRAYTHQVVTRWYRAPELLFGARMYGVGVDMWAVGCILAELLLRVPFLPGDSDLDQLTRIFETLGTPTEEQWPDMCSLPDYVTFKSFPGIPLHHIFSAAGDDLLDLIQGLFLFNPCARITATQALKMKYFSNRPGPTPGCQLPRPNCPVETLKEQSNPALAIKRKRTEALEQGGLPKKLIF
pIC50: −log10 of the molar value.
measured_endpoint: pIC50

* CCOc1cc(N2CCC(O)CC2)ccc1Nc1ncc2c(n1)N(C)c1ccccc1C(=O)N2C | < 4.30

* * *

Molecular target: Mitogen-activated protein kinase kinase kinase 5 (Homo sapiens)
Sequence (Q99683 whole entry): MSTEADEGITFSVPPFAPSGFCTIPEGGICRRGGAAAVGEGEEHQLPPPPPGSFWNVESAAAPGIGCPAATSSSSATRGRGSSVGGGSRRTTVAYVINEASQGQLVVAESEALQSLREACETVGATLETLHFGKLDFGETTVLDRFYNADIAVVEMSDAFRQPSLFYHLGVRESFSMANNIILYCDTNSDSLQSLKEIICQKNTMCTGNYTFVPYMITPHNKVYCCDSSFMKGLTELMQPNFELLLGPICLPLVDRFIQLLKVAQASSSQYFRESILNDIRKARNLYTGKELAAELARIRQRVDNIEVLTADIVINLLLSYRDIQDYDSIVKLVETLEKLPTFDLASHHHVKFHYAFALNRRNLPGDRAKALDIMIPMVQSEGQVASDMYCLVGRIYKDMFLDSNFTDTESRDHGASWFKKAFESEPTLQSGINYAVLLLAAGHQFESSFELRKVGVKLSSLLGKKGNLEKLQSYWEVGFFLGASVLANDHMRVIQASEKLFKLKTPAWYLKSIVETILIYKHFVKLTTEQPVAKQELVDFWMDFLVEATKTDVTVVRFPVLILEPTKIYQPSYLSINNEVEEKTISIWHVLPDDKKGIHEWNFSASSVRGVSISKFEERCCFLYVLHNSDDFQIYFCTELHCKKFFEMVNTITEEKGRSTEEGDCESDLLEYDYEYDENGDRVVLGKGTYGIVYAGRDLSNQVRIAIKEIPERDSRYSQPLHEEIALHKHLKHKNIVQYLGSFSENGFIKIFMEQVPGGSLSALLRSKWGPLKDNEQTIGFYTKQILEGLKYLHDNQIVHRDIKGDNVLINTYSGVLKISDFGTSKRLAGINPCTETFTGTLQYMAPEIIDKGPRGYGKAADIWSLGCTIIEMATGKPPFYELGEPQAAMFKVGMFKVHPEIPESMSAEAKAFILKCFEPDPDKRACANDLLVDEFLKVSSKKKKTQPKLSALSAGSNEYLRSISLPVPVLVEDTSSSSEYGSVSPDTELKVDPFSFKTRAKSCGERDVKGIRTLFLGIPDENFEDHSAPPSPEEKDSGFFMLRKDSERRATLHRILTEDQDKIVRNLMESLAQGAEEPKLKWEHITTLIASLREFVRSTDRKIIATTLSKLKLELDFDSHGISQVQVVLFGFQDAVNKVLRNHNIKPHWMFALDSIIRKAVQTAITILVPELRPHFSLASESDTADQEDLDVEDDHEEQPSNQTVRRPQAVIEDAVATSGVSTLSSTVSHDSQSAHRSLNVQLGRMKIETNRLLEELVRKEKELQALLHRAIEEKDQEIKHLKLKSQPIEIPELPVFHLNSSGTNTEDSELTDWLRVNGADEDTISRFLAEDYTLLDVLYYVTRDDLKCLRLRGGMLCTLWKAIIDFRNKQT
Test: Inhibition of MAP3K5 in human HeLa cells lysate pre incubated for 15 mins followed by ATP acyl phosphate probe addition and measured after 10 mins by LC-MS/MS analysis
measured_endpoint: IC50

• CCOc1cc(N2CCC(O)CC2)ccc1Nc1ncc2c(n1)N(C)c1ccccc1C(=O)N2C = > 50 µM

* * *

target: AMPK alpha1/alpha2 (Homo sapiens, UniProt P54646+Q13131); experiment: Inhibition of AMPKalpha1/2 in human HeLa cells lysate pre incubated for 15 mins followed by ATP acyl phosphate probe addition and measured after 10 mins by LC-MS/MS analysis; assay type: subcellular
Sequence (P54646 whole entry): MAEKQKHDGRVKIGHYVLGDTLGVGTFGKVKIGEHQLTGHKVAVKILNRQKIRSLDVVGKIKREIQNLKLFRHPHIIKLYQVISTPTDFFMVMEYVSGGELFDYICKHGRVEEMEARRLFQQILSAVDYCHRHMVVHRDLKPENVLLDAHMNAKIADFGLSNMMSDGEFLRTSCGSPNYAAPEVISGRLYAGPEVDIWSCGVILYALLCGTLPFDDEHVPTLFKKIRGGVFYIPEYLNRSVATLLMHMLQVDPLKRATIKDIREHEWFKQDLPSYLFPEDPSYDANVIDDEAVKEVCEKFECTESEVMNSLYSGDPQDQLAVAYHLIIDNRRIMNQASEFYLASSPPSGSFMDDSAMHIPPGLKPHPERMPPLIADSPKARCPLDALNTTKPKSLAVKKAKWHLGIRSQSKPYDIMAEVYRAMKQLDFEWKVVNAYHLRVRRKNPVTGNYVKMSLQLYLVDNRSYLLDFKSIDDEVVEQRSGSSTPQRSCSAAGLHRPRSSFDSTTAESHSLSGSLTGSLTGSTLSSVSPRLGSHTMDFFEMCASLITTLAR
Sequence (Q13131 whole entry): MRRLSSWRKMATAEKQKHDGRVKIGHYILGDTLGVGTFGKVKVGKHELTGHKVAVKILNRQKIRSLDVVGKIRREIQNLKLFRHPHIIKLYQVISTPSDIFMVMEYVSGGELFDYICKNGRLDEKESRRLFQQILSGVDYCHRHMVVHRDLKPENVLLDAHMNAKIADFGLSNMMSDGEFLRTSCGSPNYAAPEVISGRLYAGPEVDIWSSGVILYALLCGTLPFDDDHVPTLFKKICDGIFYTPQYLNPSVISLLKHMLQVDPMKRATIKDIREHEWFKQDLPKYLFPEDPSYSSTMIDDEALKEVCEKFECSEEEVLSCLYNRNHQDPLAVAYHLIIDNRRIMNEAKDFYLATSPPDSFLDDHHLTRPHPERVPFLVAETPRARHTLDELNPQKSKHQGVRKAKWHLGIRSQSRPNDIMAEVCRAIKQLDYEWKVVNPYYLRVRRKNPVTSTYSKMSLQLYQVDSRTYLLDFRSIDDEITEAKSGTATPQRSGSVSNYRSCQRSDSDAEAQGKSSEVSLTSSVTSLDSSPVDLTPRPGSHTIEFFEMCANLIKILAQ
measured_endpoint: IC50

- CCOc1cc(N2CCC(O)CC2)ccc1Nc1ncc2c(n1)N(C)c1ccccc1C(=O)N2C: > 50 µM

* * *

target: Dual specificity mitogen-activated protein kinase kinase 3 (Homo sapiens, UniProt P46734); assay: Inhibition of MAP2K3 in human HeLa cells lysate pre incubated for 15 mins followed by ADP acyl phosphate probe addition and measured after 10 mins by LC-MS/MS analysis; format: subcellular
Sequence (P46734 whole entry): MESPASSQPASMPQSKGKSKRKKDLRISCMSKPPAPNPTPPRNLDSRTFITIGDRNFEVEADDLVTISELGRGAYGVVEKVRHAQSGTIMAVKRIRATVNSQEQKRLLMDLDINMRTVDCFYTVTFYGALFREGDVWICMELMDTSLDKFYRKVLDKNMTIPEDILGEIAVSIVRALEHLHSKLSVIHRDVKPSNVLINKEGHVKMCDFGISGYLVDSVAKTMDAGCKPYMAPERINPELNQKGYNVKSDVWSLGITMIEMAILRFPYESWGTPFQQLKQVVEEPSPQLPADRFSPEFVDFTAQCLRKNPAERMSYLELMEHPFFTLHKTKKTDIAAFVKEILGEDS
measured_endpoint: IC50

• CCOc1cc(N2CCC(O)CC2)ccc1Nc1ncc2c(n1)N(C)c1ccccc1C(=O)N2C = > 50 µM

* * *

target: Serine/threonine-protein kinase MRCK beta (Homo sapiens, UniProt Q9Y5S2); experiment: Inhibition of MRCKB in human HeLa cells lysate pre incubated for 15 mins followed by ATP acyl phosphate probe addition and measured after 10 mins by LC-MS/MS analysis
pIC50: −log10 of the molar value.
measured_endpoint: pIC50

• CCOc1cc(N2CCC(O)CC2)ccc1Nc1ncc2c(n1)N(C)c1ccccc1C(=O)N2C = < 4.30

* * *

biological target: Cyclin-dependent kinase 12 (Homo sapiens); experiment: Inhibition of CRK7 in human HeLa cells lysate pre incubated for 15 mins followed by ADP acyl phosphate probe addition and measured after 10 mins by LC-MS/MS analysis
Sequence (Q9NYV4 whole entry): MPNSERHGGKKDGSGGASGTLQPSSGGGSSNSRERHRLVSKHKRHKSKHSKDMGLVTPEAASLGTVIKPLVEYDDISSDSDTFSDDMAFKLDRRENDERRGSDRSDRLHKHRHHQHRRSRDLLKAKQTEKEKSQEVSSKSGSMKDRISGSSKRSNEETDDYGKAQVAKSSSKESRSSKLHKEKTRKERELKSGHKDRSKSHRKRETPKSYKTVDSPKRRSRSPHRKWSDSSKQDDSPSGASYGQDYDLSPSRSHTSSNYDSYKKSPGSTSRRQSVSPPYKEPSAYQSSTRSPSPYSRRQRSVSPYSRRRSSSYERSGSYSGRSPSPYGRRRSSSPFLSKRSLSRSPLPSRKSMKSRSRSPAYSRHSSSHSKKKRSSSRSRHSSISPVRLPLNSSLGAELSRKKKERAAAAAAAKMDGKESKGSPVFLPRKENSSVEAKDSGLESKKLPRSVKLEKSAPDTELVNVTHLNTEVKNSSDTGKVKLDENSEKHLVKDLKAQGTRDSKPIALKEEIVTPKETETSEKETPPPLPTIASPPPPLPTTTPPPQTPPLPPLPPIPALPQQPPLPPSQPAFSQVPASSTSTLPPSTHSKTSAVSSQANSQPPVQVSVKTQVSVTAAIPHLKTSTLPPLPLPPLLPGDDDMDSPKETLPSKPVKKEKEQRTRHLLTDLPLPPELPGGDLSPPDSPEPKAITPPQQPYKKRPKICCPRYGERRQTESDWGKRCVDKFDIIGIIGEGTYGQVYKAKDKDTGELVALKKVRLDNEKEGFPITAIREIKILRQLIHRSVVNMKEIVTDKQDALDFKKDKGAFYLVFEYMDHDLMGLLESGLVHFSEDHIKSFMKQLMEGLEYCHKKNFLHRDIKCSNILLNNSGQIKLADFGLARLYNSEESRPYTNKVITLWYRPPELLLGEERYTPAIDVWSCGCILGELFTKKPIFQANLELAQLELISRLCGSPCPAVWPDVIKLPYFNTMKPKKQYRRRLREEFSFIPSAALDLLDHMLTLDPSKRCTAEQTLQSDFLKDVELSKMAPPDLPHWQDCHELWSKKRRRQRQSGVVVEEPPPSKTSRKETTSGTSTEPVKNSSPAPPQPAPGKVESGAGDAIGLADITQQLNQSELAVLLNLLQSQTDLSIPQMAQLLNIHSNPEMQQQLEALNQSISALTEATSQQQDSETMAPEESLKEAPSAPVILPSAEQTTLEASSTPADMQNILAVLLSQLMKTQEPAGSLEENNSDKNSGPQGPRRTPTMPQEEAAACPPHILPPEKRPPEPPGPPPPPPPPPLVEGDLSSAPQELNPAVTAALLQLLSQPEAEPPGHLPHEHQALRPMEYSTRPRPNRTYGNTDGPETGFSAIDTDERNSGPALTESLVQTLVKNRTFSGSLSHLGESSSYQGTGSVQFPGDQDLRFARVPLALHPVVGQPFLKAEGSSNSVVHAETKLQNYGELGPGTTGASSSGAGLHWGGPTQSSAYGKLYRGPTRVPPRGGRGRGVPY
pIC50: −log10 of the molar value.
measured_endpoint: pIC50

• CCOc1cc(N2CCC(O)CC2)ccc1Nc1ncc2c(n1)N(C)c1ccccc1C(=O)N2C = < 4.30

* * *

target: Serine/threonine-protein kinase ULK3 (Homo sapiens, UniProt Q6PHR2); experiment: Inhibition of ULK3 in human HeLa cells lysate pre incubated for 15 mins followed by ATP acyl phosphate probe addition and measured after 10 mins by LC-MS/MS analysis; format: subcellular
Sequence (Q6PHR2 whole entry): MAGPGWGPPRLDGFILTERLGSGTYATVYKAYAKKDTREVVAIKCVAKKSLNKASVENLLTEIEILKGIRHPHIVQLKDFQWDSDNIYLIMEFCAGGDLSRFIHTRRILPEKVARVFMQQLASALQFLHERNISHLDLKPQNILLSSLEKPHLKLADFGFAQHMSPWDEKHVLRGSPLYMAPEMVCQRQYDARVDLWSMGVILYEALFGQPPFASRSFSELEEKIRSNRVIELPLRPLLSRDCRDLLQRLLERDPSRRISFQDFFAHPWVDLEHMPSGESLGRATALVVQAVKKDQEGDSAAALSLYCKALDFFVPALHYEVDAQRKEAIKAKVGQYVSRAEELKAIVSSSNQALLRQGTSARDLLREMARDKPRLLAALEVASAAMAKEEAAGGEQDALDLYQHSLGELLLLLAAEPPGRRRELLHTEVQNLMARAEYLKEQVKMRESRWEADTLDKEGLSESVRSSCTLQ
measured_endpoint: IC50

• CCOc1cc(N2CCC(O)CC2)ccc1Nc1ncc2c(n1)N(C)c1ccccc1C(=O)N2C = > 50 µM

* * *

target: Interferon-induced, double-stranded RNA-activated protein kinase (Homo sapiens); assay: Inhibition of PKR in human HeLa cells lysate pre incubated for 15 mins followed by ADP acyl phosphate probe addition and measured after 10 mins by LC-MS/MS analysis; assay type: subcellular
Sequence (P19525 whole entry): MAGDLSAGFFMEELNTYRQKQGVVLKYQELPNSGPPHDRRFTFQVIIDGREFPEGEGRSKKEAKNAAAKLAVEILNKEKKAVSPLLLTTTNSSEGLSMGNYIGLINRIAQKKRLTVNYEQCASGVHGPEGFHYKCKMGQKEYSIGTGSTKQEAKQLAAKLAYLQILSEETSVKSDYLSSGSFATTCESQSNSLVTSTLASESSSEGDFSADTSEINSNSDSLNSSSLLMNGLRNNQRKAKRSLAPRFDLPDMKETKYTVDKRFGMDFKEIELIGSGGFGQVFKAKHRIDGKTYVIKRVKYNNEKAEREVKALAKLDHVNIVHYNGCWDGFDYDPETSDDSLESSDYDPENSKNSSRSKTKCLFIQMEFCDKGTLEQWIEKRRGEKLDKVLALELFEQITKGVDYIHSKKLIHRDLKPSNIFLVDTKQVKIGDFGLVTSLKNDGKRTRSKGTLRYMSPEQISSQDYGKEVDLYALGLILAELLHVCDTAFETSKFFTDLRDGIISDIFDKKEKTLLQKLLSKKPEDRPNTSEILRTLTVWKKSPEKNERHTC
pIC50: −log10 of the molar value.
measured_endpoint: pIC50

- CCOc1cc(N2CCC(O)CC2)ccc1Nc1ncc2c(n1)N(C)c1ccccc1C(=O)N2C: < 4.30

* * *

molecular target: Tyrosine-protein kinase Lyn (Homo sapiens, UniProt P07948); assay: Inhibition of LYN in human HeLa cells lysate pre incubated for 15 mins followed by ATP acyl phosphate probe addition and measured after 10 mins by LC-MS/MS analysis
Sequence (P07948 whole entry): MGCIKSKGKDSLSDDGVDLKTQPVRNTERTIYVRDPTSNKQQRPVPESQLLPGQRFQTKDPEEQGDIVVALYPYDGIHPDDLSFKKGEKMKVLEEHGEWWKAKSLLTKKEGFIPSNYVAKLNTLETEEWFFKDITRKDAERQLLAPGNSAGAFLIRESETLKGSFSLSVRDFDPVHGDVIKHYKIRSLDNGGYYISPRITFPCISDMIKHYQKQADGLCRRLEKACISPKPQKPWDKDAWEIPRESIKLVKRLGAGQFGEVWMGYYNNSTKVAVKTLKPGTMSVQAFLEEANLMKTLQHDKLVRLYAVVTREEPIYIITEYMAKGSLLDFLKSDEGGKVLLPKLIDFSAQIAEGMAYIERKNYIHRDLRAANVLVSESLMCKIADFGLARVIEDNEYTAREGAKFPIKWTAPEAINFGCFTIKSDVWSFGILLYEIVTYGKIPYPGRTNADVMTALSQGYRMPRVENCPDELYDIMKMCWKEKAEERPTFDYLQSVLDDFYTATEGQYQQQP
measured_endpoint: IC50

• CCOc1cc(N2CCC(O)CC2)ccc1Nc1ncc2c(n1)N(C)c1ccccc1C(=O)N2C = > 50 µM

* * *

biological target: Serine/threonine-protein kinase Sgk3 (Homo sapiens, UniProt Q96BR1); assay: Inhibition of SGK3 in human HeLa cells lysate pre incubated for 15 mins followed by ADP acyl phosphate probe addition and measured after 10 mins by LC-MS/MS analysis; format: subcellular
measured_endpoint: IC50

• CCOc1cc(N2CCC(O)CC2)ccc1Nc1ncc2c(n1)N(C)c1ccccc1C(=O)N2C = > 50 µM

* * *

Molecular target: Serine/threonine-protein kinase tousled-like 1 (Homo sapiens)
Sequence (Q9UKI8 whole entry): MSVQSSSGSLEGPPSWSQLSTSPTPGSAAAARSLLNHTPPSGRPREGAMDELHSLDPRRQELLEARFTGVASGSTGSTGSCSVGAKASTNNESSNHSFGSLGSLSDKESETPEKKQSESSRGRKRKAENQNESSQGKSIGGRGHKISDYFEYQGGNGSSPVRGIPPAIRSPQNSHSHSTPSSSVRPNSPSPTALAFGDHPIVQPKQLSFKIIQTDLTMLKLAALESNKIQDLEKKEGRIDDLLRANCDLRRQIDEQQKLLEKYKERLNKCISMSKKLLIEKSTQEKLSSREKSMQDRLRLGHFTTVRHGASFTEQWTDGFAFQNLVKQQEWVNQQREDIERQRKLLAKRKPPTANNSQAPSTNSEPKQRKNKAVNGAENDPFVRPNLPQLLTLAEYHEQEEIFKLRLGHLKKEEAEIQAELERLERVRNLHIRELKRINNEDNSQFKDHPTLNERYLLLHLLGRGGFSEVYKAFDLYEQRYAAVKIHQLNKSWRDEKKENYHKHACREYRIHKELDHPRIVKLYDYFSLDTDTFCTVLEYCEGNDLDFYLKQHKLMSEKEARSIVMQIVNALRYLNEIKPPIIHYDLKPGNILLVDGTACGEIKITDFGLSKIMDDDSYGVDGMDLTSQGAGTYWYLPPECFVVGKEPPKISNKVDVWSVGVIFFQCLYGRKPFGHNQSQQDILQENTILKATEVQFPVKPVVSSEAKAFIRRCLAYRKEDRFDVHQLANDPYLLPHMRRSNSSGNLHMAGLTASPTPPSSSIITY
Assay: Inhibition of TLK1 in human HeLa cells lysate pre incubated for 15 mins followed by ADP acyl phosphate probe addition and measured after 10 mins by LC-MS/MS analysis
measured_endpoint: IC50

* CCOc1cc(N2CCC(O)CC2)ccc1Nc1ncc2c(n1)N(C)c1ccccc1C(=O)N2C | > 50 µM
